# test-target: Aurora-A (Homo sapiens, UniProt O14965)
# Sequence (O14965 whole entry): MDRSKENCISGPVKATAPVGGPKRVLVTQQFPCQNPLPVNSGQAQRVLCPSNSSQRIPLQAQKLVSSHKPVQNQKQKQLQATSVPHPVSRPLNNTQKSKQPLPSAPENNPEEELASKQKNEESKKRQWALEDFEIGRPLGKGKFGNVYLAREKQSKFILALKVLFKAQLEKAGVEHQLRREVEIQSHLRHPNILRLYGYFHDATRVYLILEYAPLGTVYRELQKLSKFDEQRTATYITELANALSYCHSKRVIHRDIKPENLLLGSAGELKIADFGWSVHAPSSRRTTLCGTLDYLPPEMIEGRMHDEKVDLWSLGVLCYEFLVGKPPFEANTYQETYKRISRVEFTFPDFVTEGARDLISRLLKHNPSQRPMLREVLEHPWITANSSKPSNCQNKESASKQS
test-readout: pKi
The quantity pKi is defined as the negative base-10 logarithm of the molar concentration.

Assay Aurora-A (Homo sapiens, UniProt O14965), sample Cc1nc(C)c(-c2ccnc(Nc3ccc(Cl)nc3)n2)s1 , pKi read: 6.07

###

# test-target: CDK1/cyclin B (Homo sapiens, UniProt P06493)
# Sequence (P06493 whole entry): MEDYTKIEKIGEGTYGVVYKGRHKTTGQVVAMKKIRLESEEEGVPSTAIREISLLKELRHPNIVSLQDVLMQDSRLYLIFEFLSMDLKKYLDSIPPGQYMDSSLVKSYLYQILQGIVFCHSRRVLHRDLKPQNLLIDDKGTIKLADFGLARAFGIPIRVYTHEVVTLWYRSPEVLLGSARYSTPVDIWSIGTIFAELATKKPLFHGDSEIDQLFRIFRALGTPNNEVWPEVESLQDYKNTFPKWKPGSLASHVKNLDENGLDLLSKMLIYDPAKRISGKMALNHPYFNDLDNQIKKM
# Sequence (P14635 whole entry partner): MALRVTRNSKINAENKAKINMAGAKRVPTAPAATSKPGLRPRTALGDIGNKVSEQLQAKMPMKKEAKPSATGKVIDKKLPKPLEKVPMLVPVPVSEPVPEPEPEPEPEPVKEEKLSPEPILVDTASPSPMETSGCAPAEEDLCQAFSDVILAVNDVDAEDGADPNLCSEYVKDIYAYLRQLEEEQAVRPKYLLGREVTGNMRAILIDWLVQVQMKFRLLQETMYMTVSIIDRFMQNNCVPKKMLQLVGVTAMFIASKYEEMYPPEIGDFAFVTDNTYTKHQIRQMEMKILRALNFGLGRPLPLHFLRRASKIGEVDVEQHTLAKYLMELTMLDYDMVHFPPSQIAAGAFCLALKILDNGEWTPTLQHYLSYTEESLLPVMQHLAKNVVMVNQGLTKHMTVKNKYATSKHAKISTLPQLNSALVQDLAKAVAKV
# method-summary: Kinase assay, incorporation of radioactive phosphate from ATP
# test-conditions: 100 μM ATP, 30° C.; read-out: Kinase inhibition Ki CDK1/cyclin B
test-readout: pKi
The quantity pKi is defined as the negative base-10 logarithm of the molar concentration.

So, COc1ccc(Nc2nccc(-c3sc(C)nc3C)n2)cn1 [Compound 6] ? Its pKi was 5.55

So, CNc1nc(C)c(-c2ccnc(Nc3ccc(OC)nc3)n2)s1 [Compound 8] ? Its pKi was 6.08

So, Cc1nc(C)c(-c2ccnc(Nc3ccc(Cl)nc3)n2)s1 [Compound 3] ? Its pKi was 5.38

So, Cc1c(-c2ccnc(Nc3ccc(Cl)nc3)n2)sc(=O)n1C [Compound 4] ? Its pKi was 5.82

So, Cc1nc(N)sc1-c1ccnc(Nc2ccc(Cl)nc2)n1 [Compound 7] ? Its pKi was 5.70

So, CCn1c(C)c(-c2ccnc(Nc3ccc(OC)nc3)n2)sc1=O [Compound 11] ? Its pKi was 5.47

So, CCNc1nc(C)c(-c2ccnc(Nc3ccc(OC)nc3)n2)s1 [Compound 12] ? Its pKi was 7.00

###

In this section, each of the compounds is paired with its reported Ki.
# test-target: CDK1/cyclin B (Homo sapiens, UniProt P06493)
# method-summary: Kinase assay, incorporation of radioactive phosphate from ATP
# test-conditions: 100 μM ATP, 30° C.; read-out: Kinase inhibition Ki CDK1/cyclin B
Value expressed in nM; do not type the unit.

Illustrative cases are given below, each with its answer.
> print(dat)
                               given.smiles                               test.target  measured.value
1  Cc1nc(C)c(-c2ccnc(Nc3ccc(N4CCCC4)nc3)n2)s1  CDK1/cyclin B (Homo sapiens, UniProt P06493)            2100
2   COc1ccc(Nc2nccc(-c3sc(N(C)C)nc3C)n2)cn1  CDK1/cyclin B (Homo sapiens, UniProt P06493)            1200
3  COCCNc1nc(C)c(-c2ccnc(Nc3ccc(OC)nc3)n2)s1  CDK1/cyclin B (Homo sapiens, UniProt P06493)            2300

Now for the compound whose Ki we want.
So, COc1ccc(Nc2nccc(-c3sc(N)nc3C)n2)cn1 ? Its Ki was 5500
